All values here come from patent US20150322082A1.

Assay: Pharmacokinetic assay in rats (Rat IV and PO PK)
Format: in vivo
Details: male, Crl:CD (SD), intravenous (tail vein), target dose 1 mg/kg, plasma, read-out: Rat IV AUC
experimental endpoint: AUC (ng·h/mL)

Some solved cases for reference:
Query string: Provide AUC value for the following molecule: `Cc1ccc(-n2ccc3cc(N4CCOc5ncnc(N)c5C4=O)ccc32)cn1`
Result string: 975

Query string: Provide AUC value for the following molecule: `Nc1ncnc2c1C(=O)N(c1ccc3c(ccn3-c3ccc(C(F)(F)F)cn3)c1)CCO2`
Result string: 3780

(I) Nc1ncnc2c1C(=O)N(c1ccc3c(ccn3-c3ccc(C(F)(F)F)nc3)c1)CCO2
(II) Cc1cnc(-n2ccc3cc(N4CCOc5ncnc(N)c5C4=O)cc(C4CC4)c32)nc1
(III) CC(C)(O)c1ccc(-n2ccc3cc(N4CCOc5ncnc(N)c5C4=O)ccc32)cn1
Query string: Arrange by AUC, high to low. Put the labels in the requested order and write them down.
Result string: II, I, III
(II: 11700 ng·h/mL, I: 3380 ng·h/mL, III: 2140 ng·h/mL)
